Biological target: UniProt:P00749
Assay: Chromogenic substrate assay, Ki determination, Urokinase
Type: biochemical
Settings: substrate S-2444
compounds and their reported Ki
Endpoint name: Ki

CC(=O)N/C=C/c1ccc2c(c1)O[C@H](c1ccc(O)c(O)c1)[C@@H](NC(C)=O)O2 ... > 250 µM
CC(=O)NCCc1ccc2c(c1)O[C@H](NC(C)=O)[C@@H](c1ccc(O)c(O)c1)O2 ... > 500 µM
CC(=O)NCCc1ccc2c(c1)O[C@@H](NC(C)=O)[C@@H](c1ccc(O)c(O)c1)O2 ... > 500 µM
CC(=O)NCCc1ccc2c(c1)O[C@H](c1ccc(O)c(O)c1)[C@@H](NC(C)=O)O2 ... > 500 µM
CC(=O)NCCc1ccc2c(c1)O[C@H](c1ccc(O)c(O)c1)[C@H](NC(C)=O)O2 ... > 300 µM

----------
Target: Streptokinase (Homo sapiens)
Sequence (P00747 581-810 limits assumed): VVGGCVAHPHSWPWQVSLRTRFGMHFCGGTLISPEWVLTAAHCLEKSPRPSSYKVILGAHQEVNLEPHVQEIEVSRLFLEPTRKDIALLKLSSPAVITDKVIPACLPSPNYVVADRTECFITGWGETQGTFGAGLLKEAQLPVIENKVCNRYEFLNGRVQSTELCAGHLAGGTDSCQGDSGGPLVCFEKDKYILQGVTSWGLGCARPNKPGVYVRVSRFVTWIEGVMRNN
Experiment: Chromogenic substrate assay, Ki determination, Streptokinase
Details: substrate S-2251
pKi: −log10 of the molar value.
compounds and their reported pKi
Endpoint name: pKi

CC(=O)NCCc1ccc2c(c1)O[C@H](c1ccc(O)c(O)c1)[C@H](NC(C)=O)O2 ... < 3.52
CC(=O)NCCc1ccc2c(c1)O[C@@H](NC(C)=O)[C@@H](c1ccc(O)c(O)c1)O2 ... < 3.30
CC(=O)N/C=C/c1ccc2c(c1)O[C@H](c1ccc(O)c(O)c1)[C@@H](NC(C)=O)O2 ... < 3.60
CC(=O)NCCc1ccc2c(c1)O[C@H](NC(C)=O)[C@@H](c1ccc(O)c(O)c1)O2 ... < 3.30
CC(=O)NCCc1ccc2c(c1)O[C@H](c1ccc(O)c(O)c1)[C@@H](NC(C)=O)O2 ... < 3.30

----------
Target: FXa (Homo sapiens)
Construct: purchased Haematologic Technologies (Essex Junction, VT, USA)
Sequence (P00742 235-488 limits assumed): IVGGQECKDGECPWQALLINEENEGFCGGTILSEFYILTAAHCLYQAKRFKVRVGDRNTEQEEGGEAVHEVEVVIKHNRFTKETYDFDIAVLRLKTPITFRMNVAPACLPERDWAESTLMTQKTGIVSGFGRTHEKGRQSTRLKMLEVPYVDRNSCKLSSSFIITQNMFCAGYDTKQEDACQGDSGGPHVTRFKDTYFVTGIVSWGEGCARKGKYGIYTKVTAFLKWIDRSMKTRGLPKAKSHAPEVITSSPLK
Sequence (P00742 41-179 limits assumed): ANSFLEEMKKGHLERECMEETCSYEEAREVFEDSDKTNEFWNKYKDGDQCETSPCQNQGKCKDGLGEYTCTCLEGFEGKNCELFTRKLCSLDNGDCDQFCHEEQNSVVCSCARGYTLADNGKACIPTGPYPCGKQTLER
Assay: Chromogenic substrate assay, Ki determination, Factor Xa
Type: biochemical
Settings: substrate S-2765 (Table 3); mean ± SD (n = 5)
Endpoint name: Ki (µM)

CC(=O)NCCc1ccc2c(c1)O[C@H](NC(C)=O)[C@@H](c1ccc(O)c(O)c1)O2 [Compound 3] ... 4.45
CC(=O)NCCc1ccc2c(c1)O[C@H](c1ccc(O)c(O)c1)[C@@H](NC(C)=O)O2 [Compound 4] ... 4.72
CC(=O)NCCc1ccc2c(c1)O[C@H](c1ccc(O)c(O)c1)[C@H](NC(C)=O)O2 [Compound 1] ... 2.96
CC(=O)NCCc1ccc2c(c1)O[C@@H](NC(C)=O)[C@@H](c1ccc(O)c(O)c1)O2 [Compound 2] ... 4.13

----------
compounds and their reported Ki
Biological target: Protein Ca (Homo sapiens, UniProt P04070)
Sequence (P04070 212-461 limits assumed): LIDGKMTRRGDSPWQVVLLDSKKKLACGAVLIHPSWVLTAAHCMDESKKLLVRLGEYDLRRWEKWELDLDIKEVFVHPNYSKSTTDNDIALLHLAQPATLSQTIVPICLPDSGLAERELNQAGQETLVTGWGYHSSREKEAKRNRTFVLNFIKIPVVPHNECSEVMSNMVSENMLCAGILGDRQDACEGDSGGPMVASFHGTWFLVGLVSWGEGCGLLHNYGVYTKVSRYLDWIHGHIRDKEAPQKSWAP
Sequence (P04070 43-197 limits assumed): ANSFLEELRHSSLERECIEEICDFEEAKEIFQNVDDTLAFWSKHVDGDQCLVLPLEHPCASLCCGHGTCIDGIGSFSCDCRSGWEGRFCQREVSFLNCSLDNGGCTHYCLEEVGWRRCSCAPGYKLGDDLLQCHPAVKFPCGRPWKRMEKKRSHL
Endpoint name: Ki

CC(=O)NCCc1ccc2c(c1)O[C@H](c1ccc(O)c(O)c1)[C@@H](NC(C)=O)O2 ... > 500 µM
CC(=O)NCCc1ccc2c(c1)O[C@@H](NC(C)=O)[C@@H](c1ccc(O)c(O)c1)O2 ... > 500 µM
CC(=O)NCCc1ccc2c(c1)O[C@H](c1ccc(O)c(O)c1)[C@H](NC(C)=O)O2 ... > 300 µM
CC(=O)NCCc1ccc2c(c1)O[C@H](NC(C)=O)[C@@H](c1ccc(O)c(O)c1)O2 ... > 500 µM
CC(=O)N/C=C/c1ccc2c(c1)O[C@H](c1ccc(O)c(O)c1)[C@@H](NC(C)=O)O2 ... > 250 µM
